Origin of values: patent US20250129121A1

System: Bifidobacterium uniformis 6597
Assay type: cell-based
Details: 20 h
Where a SMILES comes first, the peptide text is derived from it.
Property: MIC Bifidobacteriu muniformis 6597

Sample answers from the record:
[[record]]
compound = "N=C(N)NCCC[C@H](NC(=O)CNC(=O)[C@@H]1CCCN1C(=O)[C@H](CCCNC(=N)N)NC(=O)[C@H](Cc1c[nH]c2ccccc12)NC(=O)[C@H](Cc1c[nH]cn1)NC(=O)[C@@H](N)Cc1c[nH]c2ccccc12)C(=O)N[C@@H](Cc1c[nH]c2ccccc12)C(=O)N[C@@H](Cc1c[nH]cn1)C(=O)N[C@@H](Cc1c[nH]c2ccccc12)C(=O)O [P7, WHWRPGRWHW] (H-WHWRPGRWHW-OH; N-terminus assumed)"
system_name = "Bifidobacterium uniformis 6597"
recorded_value = ">64 µM"

[[record]]
compound = "N=C(N)NCCC[C@H](NC(=O)CNC(=O)[C@@H]1CCCN1C(=O)[C@H](CCCNC(=N)N)NC(=O)[C@H](Cc1c[nH]c2ccccc12)NC(=O)[C@H](CCC(=O)O)NC(=O)[C@@H](N)Cc1c[nH]c2ccccc12)C(=O)N[C@@H](Cc1c[nH]c2ccccc12)C(=O)N[C@@H](CCC(=O)O)C(=O)N[C@@H](Cc1c[nH]c2ccccc12)C(=O)O [P1, WEWRPGRWEW] (H-WEWRPGRWEW-OH; N-terminus assumed)"
system_name = "Bifidobacterium uniformis 6597"
recorded_value = ">64 µM"


q: Which value of MIC Bifidobacteriu muniformis 6597 has been reported for N=C(N)NCCC[C@H](NC(=O)CNC(=O)[C@@H]1CCCN1C(=O)[C@H](CCCNC(=N)N)NC(=O)[C@H](Cc1c[nH]c2ccccc12)NC(=O)[C@H](CCCCN)NC(=O)[C@@H](N)Cc1c[nH]c2ccccc12)C(=O)N[C@@H](Cc1c[nH]c2ccccc12)C(=O)N[C@@H](CCCCN)C(=O)N[C@@H](Cc1c[nH]c2ccccc12)C(=O)O [P10, WKWRPGRWKW] (H-WKWRPGRWKW-OH; N-terminus assumed) in the records?
a: 64 µM

q: Which value of MIC Bifidobacteriu muniformis 6597 has been reported for N=C(N)NCCC[C@H](NC(=O)CNC(=O)[C@@H]1CCCN1C(=O)[C@H](CCCNC(=N)N)NC(=O)[C@H](Cc1c[nH]c2ccccc12)NC(=O)[C@H](CC(=O)O)NC(=O)[C@@H](N)Cc1c[nH]c2ccccc12)C(=O)N[C@@H](Cc1c[nH]c2ccccc12)C(=O)N[C@@H](CC(=O)O)C(=O)N[C@@H](Cc1c[nH]c2ccccc12)C(=O)O [P4, WDWRPGRWDW] (H-WDWRPGRWDW-OH; N-terminus assumed) in the records?
a: >64 µM
